biological target: HLA-A*30:02; assay: IEDB peptide-MHC binding, purified MHC/competitive/radioactivity; filed as Kd, often an IC50 or EC50 that approximates it; bounds were set here for any values at or beyond the usual limits of such assays; conditions: source organism: Mammarenavirus guanaritoense
pKd: −log10 of the molar value.
measure: pKd

- residue string: "MLDDLTMGY"
  value: 6.65

====

Readings of pKd for the listed sequences
target: HLA-A*31:01; assay: IEDB peptide-MHC binding, purified MHC/direct/fluorescence; filed as Kd, often an IC50 or EC50 that approximates it; bounds were set here for any values at or beyond the usual limits of such assays; details: source organism: Pseudomonas aeruginosa
pKd: −log10 of the molar value.
measure: pKd

- residue string: "VVAVGGLAI"
  value: "≤ 4.70"
- residue string: "LPQTRWQAV"
  value: "≤ 4.70"

====

target: HLA-B*39:01; test: IEDB peptide-MHC binding, purified MHC/competitive/fluorescence; filed as Kd, often an IC50 or EC50 that approximates it; bounds were set here for any values at or beyond the usual limits of such assays; conditions: source organism: Zaire ebolavirus
pKd: −log10 of the molar value.
measure: pKd

- residue string: "IFLKPDETF"
  value: "≤ 4.70"
- residue string: "SQVRVPTVF"
  value: "≤ 4.70"
- residue string: "KVYWAGIEF"
  value: "≤ 4.70"

====

target: HLA-A*31:01; assay: IEDB peptide-MHC binding, purified MHC/direct/fluorescence; filed as Kd, often an IC50 or EC50 that approximates it; bounds were set here for any values at or beyond the usual limits of such assays; conditions: source organism: Coxiella burnetii
pKd: −log10 of the molar value.

- residue string: "VMKRNFIDF"
  pKd: "≤ 4.70"

====

molecular target: HLA-A*30:01; test: IEDB peptide-MHC binding, purified MHC/competitive/fluorescence; filed as Kd, often an IC50 or EC50 that approximates it; bounds were set here for any values at or beyond the usual limits of such assays; settings: source organism: Human immunodeficiency virus 1
Readings of Kd for the listed sequences
measure: Kd

- residue string: "KSLFNTIATLY"
  measure: "Kd"
  value: "≥ 20 µM"
- residue string: "RSLFNTIATLY"
  measure: "Kd"
  value: "≥ 20 µM"

====

target: HLA-B*15:42; test: IEDB peptide-MHC binding, purified MHC/competitive/fluorescence; filed as Kd, often an IC50 or EC50 that approximates it; bounds were set here for any values at or beyond the usual limits of such assays; conditions: source organism: human gammaherpesvirus 4
pKd: −log10 of the molar value.
measure: pKd

- residue string: "RRRKGWIPL"
  measure: "pKd"
  value: "≤ 5.30"

====

target: HLA-B*83:01; assay: IEDB peptide-MHC binding, purified MHC/competitive/fluorescence; filed as Kd, often an IC50 or EC50 that approximates it; bounds were set here for any values at or beyond the usual limits of such assays; settings: source organism: Yersinia pestis Nepal516
pKd: −log10 of the molar value.
measure: pKd

- residue string: "YSLMSRYQF"
  target desc: "HLA-B*83:01"
  measure: "pKd"
  value: "≤ 5.30"

====

molecular target: HLA-A*03:01; experiment: IEDB peptide-MHC binding, purified MHC/competitive/radioactivity; filed as Kd, often an IC50 or EC50 that approximates it; bounds were set here for any values at or beyond the usual limits of such assays; details: source organism: Mammarenavirus whitewaterense
Readings of Kd for the listed sequences

- residue string: "KIGHHVELQH"
  target desc: "HLA-A*03:01"
  Kd: "≥ 47.1 µM"
- residue string: "SCSYKIGHH"
  target desc: "HLA-A*03:01"
  Kd: "≥ 78 µM"
- residue string: "TAIAKCNLDH"
  target desc: "HLA-A*03:01"
  Kd: "≥ 70 µM"
- residue string: "SRIFEELVWK"
  target desc: "HLA-A*03:01"
  Kd: "0.2 µM"

====

molecular target: HLA-B*27:05; experiment: IEDB peptide-MHC binding, purified MHC/direct/fluorescence; filed as Kd, often an IC50 or EC50 that approximates it; bounds were set here for any values at or beyond the usual limits of such assays; details: source organism: West Nile virus

- residue string: "ILRNPGYAL"
  target desc: "HLA-B*27:05"
  Kd: "≥ 20 µM"

====

molecular target: HLA-A*11:01; assay: IEDB peptide-MHC binding, purified MHC/direct/fluorescence; filed as Kd, often an IC50 or EC50 that approximates it; bounds were set here for any values at or beyond the usual limits of such assays; conditions: source organism: Vibrio parahaemolyticus
Readings of Kd for the listed sequences

- residue string: "DQFSIPIRY"
  Kd: "≥ 20 µM"
- residue string: "ISDPAFKVF"
  Kd: "≥ 20 µM"

====

molecular target: HLA-C*05:01; assay: IEDB peptide-MHC binding, purified MHC/direct/fluorescence; filed as Kd, often an IC50 or EC50 that approximates it; bounds were set here for any values at or beyond the usual limits of such assays; details: source organism: Cryptosporidium parvum Iowa II
pKd: −log10 of the molar value.

- residue string: "MPMSMPIPM"
  pKd: "≤ 4.70"

====

molecular target: HLA-B*40:01; assay: IEDB peptide-MHC binding, purified MHC/competitive/radioactivity; filed as Kd, often an IC50 or EC50 that approximates it; bounds were set here for any values at or beyond the usual limits of such assays; settings: source organism: Dengue virus 3 Sri Lanka/1266/2000

- residue string: "VEDEEFWKL"
  Kd / nM: 18.1

====

target: HLA-B*07:02; experiment: IEDB peptide-MHC binding, purified MHC/competitive/radioactivity; filed as Kd, often an IC50 or EC50 that approximates it; bounds were set here for any values at or beyond the usual limits of such assays; settings: source organism: Hepatitis B virus
pKd: −log10 of the molar value.

- residue string: "YPALMPLY"
  pKd: "≤ 5.00"

====

Readings of pKd for the listed sequences
target: HLA-B*07:02; experiment: IEDB peptide-MHC binding, purified MHC/direct/fluorescence; filed as Kd, often an IC50 or EC50 that approximates it; bounds were set here for any values at or beyond the usual limits of such assays; conditions: source organism: Vibrio parahaemolyticus
pKd: −log10 of the molar value.

- residue string: "DQFSIPIRY"
  target desc: "HLA-B*07:02"
  pKd: "≤ 4.70"
- residue string: "ISDPAFKVF"
  target desc: "HLA-B*07:02"
  pKd: "≤ 4.70"

====

molecular target: HLA-A*02:03; test: IEDB peptide-MHC binding, purified MHC/competitive/fluorescence; filed as Kd, often an IC50 or EC50 that approximates it; bounds were set here for any values at or beyond the usual limits of such assays; conditions: source organism: Human immunodeficiency virus type 1 (ELI ISOLATE)

- residue string: "FLGRIWPS"
  unit string: "nM"
  Kd: 0.24

====

target: HLA-C*14:02; assay: IEDB peptide-MHC binding, purified MHC/direct/fluorescence; filed as Kd, often an IC50 or EC50 that approximates it; bounds were set here for any values at or beyond the usual limits of such assays; settings: source organism: Homo sapiens
pKd: −log10 of the molar value.

- residue string: "SYMMDDLELI"
  pKd: 6.24
- residue string: "MLYPRVWPY"
  pKd: 6.61

====

target: HLA-A*25:01; assay: IEDB peptide-MHC binding, purified MHC/competitive/fluorescence; bounds were set here for any values at or beyond the usual limits of such assays; settings: source organism: Homo sapiens
pIC50: −log10 of the molar value.

- residue string: "SYMMDDLELI"
  pIC50: "≤ 4.70"

====

target: HLA-A*26:01; assay: IEDB peptide-MHC binding, purified MHC/direct/fluorescence; filed as Kd, often an IC50 or EC50 that approximates it; bounds were set here for any values at or beyond the usual limits of such assays; conditions: source organism: Influenza A virus(A/swine/Shandong/fZC/2003(H9N2))

- residue string: "GTEKLTITY"
  Kd: "≥ 20 µM"

====

target: HLA-A*02:19; test: IEDB peptide-MHC binding, purified MHC/direct/fluorescence; filed as Kd, often an IC50 or EC50 that approximates it; bounds were set here for any values at or beyond the usual limits of such assays; conditions: source organism: Giardia lamblia ATCC 50803
pKd: −log10 of the molar value.
measure: pKd

- residue string: "APDGFYPFK"
  measure: "pKd"
  value: "≤ 4.70"
- residue string: "MHYGYNRAN"
  measure: "pKd"
  value: "≤ 4.70"

====

biological target: HLA-B*40:01; test: IEDB peptide-MHC binding, purified MHC/competitive/radioactivity; filed as Kd, often an IC50 or EC50 that approximates it; bounds were set here for any values at or beyond the usual limits of such assays; details: source organism: Dengue virus 2 Jamaica/1409/1983
pKd: −log10 of the molar value.
Readings of pKd for the listed sequences
measure: pKd

- residue string: "LEENVEVEI"
  value: 7.96
- residue string: "IEAGRTLRVL"
  value: 6.77
